Source: ChEMBL document CHEMBL5038634

# pEC50 annotations
biological target: Palmitoleoyl-protein carboxylesterase NOTUM (Homo sapiens, UniProt Q6P988, C330S); assay: Inhibition of Notum (81 to 451 Cys330Ser) in HEK293T cells expressing TCF-LEF assessed as activation of Wnt signaling using WNT3A as substrate incubated for […] by Steady-Glo luciferase assay
When answering, recall that pEC50 equals minus log10 of the concentration in mol/L, and write that number alone.

// solved cases for pEC50 follow
>  <structure>
O=c1[nH]nc2ccc(Sc3ccc(Cl)cc3Cl)nn12

>  <pEC50>
6.42

$$$$
>  <structure>
O=c1[nH]nc2ccc(Sc3ccc(C(F)(F)F)cc3)nn12

>  <pEC50>
6.52

$$$$
>  <structure>
Cc1ccc(Sc2ccc3n[nH]c(=O)n3n2)c(C)c1

>  <pEC50>
6.52

$$$$
>  <structure>
O=c1[nH]nc2ccc(Sc3ccc(Cl)c(Cl)c3)nn12

>  <pEC50>
6.96

$$$$

For the next question, use this compound.
Query CC(C)Oc1cccc(Sc2ccc3n[nH]c(=O)n3n2)c1 on Palmitoleoyl-protein carboxylesterase NOTUM (Homo sapiens, UniProt Q6P988, C330S); pEC50 returned: 6.59
